The values you see were collected from the supplement of paper PMC7125110.

B1: glmS ribozyme (parent)
chain: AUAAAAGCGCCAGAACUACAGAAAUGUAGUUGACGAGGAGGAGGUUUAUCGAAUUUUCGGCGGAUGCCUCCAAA

- Variants of: B1
- protocol description: self-cleavage kobs at 640 uM GlcN6P; higher = faster cleavage; RNA array
- particulars: with glucosamine-6-phosphate
Fewer inactive variants are shown than the library holds.
Classification field: enter YES for self-cleavage kobs at 640 uM GlcN6P values not below 0.0003 s⁻¹, NO for values below it.

Ask: Would you say G7A C16G A48U G60C C70A shows self-cleavage kobs at 640 uM GlcN6P at minimum 0.0003 s⁻¹?
Reply: NO

Ask: And for G38C G51U G59A G60A ?
Reply: NO

Ask: Same for G7U A53U A64G
Reply: NO

Ask: Would you kindly repeat that for G32U G35C U46A C67G C68A ?
Reply: YES

Ask: Then this variant: A36U G37C G41C U55G
Reply: NO

Ask: Moving on to A52U U57A
Reply: YES

Ask: What about this variant? A12U C67U C71G
Reply: NO

Ask: Then this variant: G29C U30C
Reply: NO

Ask: Could you do the same for A14U A53U , please?
Reply: YES

Ask: // next record A36C G41A C68A
Reply: NO

Ask: # iterate: C67G C68A
Reply: NO

Ask: # iterate: A12C G60A
Reply: NO

Ask: What would you report for G13C A14G U55G G59U C68G ?
Reply: NO

Ask: Field entry: G32U A64U
Reply: NO

Ask: How about this variant: A39G C71A
Reply: YES

Ask: For C8U C10U A14U G43A then?
Reply: NO

Ask: // same read-out, input: U47C A53G
Reply: YES

Ask: Now consider A12G C67U .
Reply: NO

Ask: Please answer likewise for G13A A15C
Reply: NO

Ask: Also A48U U55C ?
Reply: NO

Ask: And then U30C U31G C50G C70G , what is it?
Reply: NO

Ask: Next up: U45C C70U
Reply: YES
